- System: A498 renal
- protocolSummary: NCI tumour cell line growth inhibition, 48 h
Where a SMILES comes first, the peptide text is derived from it. [ ]: non-standard residue; d: D form. The star is where a group is joined. ξ: configuration not given here. ξF = NC(Cc1ccccc1)C(=O)O; Cbz = O=C(OCc1ccccc1)*
propertyMeasured: TGI

Example entries begin here.
| compound | propertyMeasured | recordedResult |
| --- | --- | --- |
| O=C1NC(=O)C2C(=O)NC(=O)C1C2Cc1ccco1 (configuration not stated) | TGI | > 100 µM |
| C#Cc1ccc(-n2c(/C=C/c3ccc(O)cc3)nc3ncccc3c2=O)cc1 | TGI | 6.88 µM |
| CC1=NN(c2nc(N)nc(C(C)Cl)n2)C(C)(C)C1 (configuration not stated) | TGI | > 100 µM |
| NNc1nnc(CCCCCCCCc2nnc(NN)n2N)n1N | TGI | > 100 µM |
| CCOC(=O)CNC(=O)C(Cc1ccccc1)NC(=O)OCc1ccccc1 (configuration not stated) (Cbz-[ξF]-Gly-OEt) | TGI | > 100 µM |
| Cc1nc2ccccc2c(=O)n1/N=C(\N=Nc1ccccc1Cl)c1ccccc1Cl | TGI | > 100 µM |

I have this compound here, NC(N)=NCCCC(NCc1c2ccccc2nc2ccccc12)C(=O)O (configuration not stated) , and I need its recorded TGI.
> 100 µM

Which TGI reading was recorded for the compound COc1ccc(-c2oc3cc(-c4cc5oc(-c6ccc(OC)cc6)c(-c6ccc(OC)cc6)c5cc4OC)c(OC)cc3c2-c2ccc(OC)cc2)cc1 ?
> 100 µM

Query: TGI; subject: CCN(CC)CCNc1ccc2ncn3c4ccc(O)cc4c(=O)c1c23
13.7 µM
